Biological target: Cytochrome P450 2C9 (Homo sapiens) (UniProt P11712)
Sequence (P11712 whole entry, looked up): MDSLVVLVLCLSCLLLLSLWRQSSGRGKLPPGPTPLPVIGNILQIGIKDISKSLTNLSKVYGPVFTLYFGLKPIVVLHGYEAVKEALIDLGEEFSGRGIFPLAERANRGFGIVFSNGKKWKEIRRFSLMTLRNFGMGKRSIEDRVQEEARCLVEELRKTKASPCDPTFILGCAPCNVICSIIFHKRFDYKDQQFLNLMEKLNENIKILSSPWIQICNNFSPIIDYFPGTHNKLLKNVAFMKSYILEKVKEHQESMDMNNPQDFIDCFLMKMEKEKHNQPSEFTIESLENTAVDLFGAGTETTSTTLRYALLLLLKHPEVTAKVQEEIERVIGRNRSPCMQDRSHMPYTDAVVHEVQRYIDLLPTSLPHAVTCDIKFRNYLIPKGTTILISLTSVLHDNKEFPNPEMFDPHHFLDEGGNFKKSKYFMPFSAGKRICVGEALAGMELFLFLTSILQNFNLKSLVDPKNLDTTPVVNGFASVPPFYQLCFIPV
Assay: Cytochrome P450 family 2 subfamily C member 9 (CYP2C9) small molecule antagonists: luciferase biochemical (cell-free) qHTS assay (AID 1645842); note: nearly all actives have a fitted effect of over 55% in size
Conditions: P450-Glo CYP2C9 enzyme assay, luciferin luminescence; series mostly up to 57.4 µM
Results filed as inconclusive are left out. Activity calls are given as the source filed them. Calls come from the whole dose curve; as a rule, active = well fitted inhibition curve with a large enough effect in the repeat runs; inconclusive = weak or mixed curves; inactive = no such curve, though single readings can be large or run the other way.
Outcomes: active, inactive

{"molecule": "NNC(=O)c1ccncc1", "test-system": "Cytochrome P450 2C9 (Homo sapiens) (UniProt P11712)", "cat": "inactive"}
{"molecule": "CN(CCOc1ccc(CC2SC(=O)NC2=O)cc1)c1ccccn1 (centres undefined)", "test-system": "Cytochrome P450 2C9 (Homo sapiens) (UniProt P11712)", "cat": "inactive"}
{"molecule": "CC(=O)[C@H]1CC[C@H]2[C@@H]3CC=C4C[C@@H](O)CC[C@]4(C)[C@H]3CC[C@]12C", "test-system": "Cytochrome P450 2C9 (Homo sapiens) (UniProt P11712)", "cat": "inactive"}
{"molecule": "CCCN[C@H]1CCc2nc(N)sc2C1", "test-system": "Cytochrome P450 2C9 (Homo sapiens) (UniProt P11712)", "cat": "inactive"}
{"molecule": "COc1cc(NCc2ccc3nc(N)nc(N)c3c2C)cc(OC)c1OC", "test-system": "Cytochrome P450 2C9 (Homo sapiens) (UniProt P11712)", "cat": "active"}
{"molecule": "CCN(CC)CC#CCOC(=O)C(O)(c1ccccc1)C1CCCCC1 (centres undefined)", "test-system": "Cytochrome P450 2C9 (Homo sapiens) (UniProt P11712)", "cat": "active"}
{"molecule": "Cc1ncc([N+](=O)[O-])n1CCO", "test-system": "Cytochrome P450 2C9 (Homo sapiens) (UniProt P11712)", "cat": "inactive"}
{"molecule": "CCN(CC)CCn1c(=O)c(Cc2ccc(OC)cc2)nc2ccccc21", "test-system": "Cytochrome P450 2C9 (Homo sapiens) (UniProt P11712)", "cat": "inactive"}
{"molecule": "COc1cc([C@@H]2c3cc4c(cc3[C@H](O)[C@H]3COC(=O)[C@H]23)OCO4)cc(OC)c1OC", "test-system": "Cytochrome P450 2C9 (Homo sapiens) (UniProt P11712)", "cat": "active"}
{"molecule": "CNNCc1ccc(C(=O)NC(C)C)cc1", "test-system": "Cytochrome P450 2C9 (Homo sapiens) (UniProt P11712)", "cat": "inactive"}
{"molecule": "CCOC(=O)[C@H](CCc1ccccc1)N[C@H]1CCc2ccccc2N(CC(=O)O)C1=O", "test-system": "Cytochrome P450 2C9 (Homo sapiens) (UniProt P11712)", "cat": "active"}
{"molecule": "CC(C)OC(=O)OCOP(=O)(CO[C@H](C)Cn1cnc2c(N)ncnc21)OCOC(=O)OC(C)C", "test-system": "Cytochrome P450 2C9 (Homo sapiens) (UniProt P11712)", "cat": "inactive"}
{"molecule": "O=S(=O)(O)CCS", "test-system": "Cytochrome P450 2C9 (Homo sapiens) (UniProt P11712)", "cat": "inactive"}
{"molecule": "COc1cccc(N(C)C(=S)Oc2ccc3c(c2)CCCC3)n1", "test-system": "Cytochrome P450 2C9 (Homo sapiens) (UniProt P11712)", "cat": "inactive"}
{"molecule": "O[C@@H](CNC[C@H](O)[C@H]1CCc2cc(F)ccc2O1)[C@@H]1CCc2cc(F)ccc2O1", "test-system": "Cytochrome P450 2C9 (Homo sapiens) (UniProt P11712)", "cat": "inactive"}
{"molecule": "CCCc1cc(C(N)=S)ccn1", "test-system": "Cytochrome P450 2C9 (Homo sapiens) (UniProt P11712)", "cat": "inactive"}
{"molecule": "COc1ccc(-c2ccc3cc(C(=O)O)ccc3c2)cc1C12CC3CC(CC(C3)C1)C2", "test-system": "Cytochrome P450 2C9 (Homo sapiens) (UniProt P11712)", "cat": "inactive"}
{"molecule": "CCOC(=O)c1ccc(OC(=O)CCCCCN=C(N)N)cc1", "test-system": "Cytochrome P450 2C9 (Homo sapiens) (UniProt P11712)", "cat": "inactive"}
{"molecule": "COc1nc(N)nc2c1ncn2[C@@H]1O[C@H](CO)[C@@H](O)[C@@H]1O", "test-system": "Cytochrome P450 2C9 (Homo sapiens) (UniProt P11712)", "cat": "inactive"}

Each recorded value in this set is attributed to PubChem BioAssay (NCATS).
